Items are presented alongside their recorded pIC50.
- TGT: hNav1.8 (Homo sapiens, UniProt Q9Y5Y9)
- Construct: host or cells: HEK cells, stably transfected
- Sequence (Q9Y5Y9 whole entry): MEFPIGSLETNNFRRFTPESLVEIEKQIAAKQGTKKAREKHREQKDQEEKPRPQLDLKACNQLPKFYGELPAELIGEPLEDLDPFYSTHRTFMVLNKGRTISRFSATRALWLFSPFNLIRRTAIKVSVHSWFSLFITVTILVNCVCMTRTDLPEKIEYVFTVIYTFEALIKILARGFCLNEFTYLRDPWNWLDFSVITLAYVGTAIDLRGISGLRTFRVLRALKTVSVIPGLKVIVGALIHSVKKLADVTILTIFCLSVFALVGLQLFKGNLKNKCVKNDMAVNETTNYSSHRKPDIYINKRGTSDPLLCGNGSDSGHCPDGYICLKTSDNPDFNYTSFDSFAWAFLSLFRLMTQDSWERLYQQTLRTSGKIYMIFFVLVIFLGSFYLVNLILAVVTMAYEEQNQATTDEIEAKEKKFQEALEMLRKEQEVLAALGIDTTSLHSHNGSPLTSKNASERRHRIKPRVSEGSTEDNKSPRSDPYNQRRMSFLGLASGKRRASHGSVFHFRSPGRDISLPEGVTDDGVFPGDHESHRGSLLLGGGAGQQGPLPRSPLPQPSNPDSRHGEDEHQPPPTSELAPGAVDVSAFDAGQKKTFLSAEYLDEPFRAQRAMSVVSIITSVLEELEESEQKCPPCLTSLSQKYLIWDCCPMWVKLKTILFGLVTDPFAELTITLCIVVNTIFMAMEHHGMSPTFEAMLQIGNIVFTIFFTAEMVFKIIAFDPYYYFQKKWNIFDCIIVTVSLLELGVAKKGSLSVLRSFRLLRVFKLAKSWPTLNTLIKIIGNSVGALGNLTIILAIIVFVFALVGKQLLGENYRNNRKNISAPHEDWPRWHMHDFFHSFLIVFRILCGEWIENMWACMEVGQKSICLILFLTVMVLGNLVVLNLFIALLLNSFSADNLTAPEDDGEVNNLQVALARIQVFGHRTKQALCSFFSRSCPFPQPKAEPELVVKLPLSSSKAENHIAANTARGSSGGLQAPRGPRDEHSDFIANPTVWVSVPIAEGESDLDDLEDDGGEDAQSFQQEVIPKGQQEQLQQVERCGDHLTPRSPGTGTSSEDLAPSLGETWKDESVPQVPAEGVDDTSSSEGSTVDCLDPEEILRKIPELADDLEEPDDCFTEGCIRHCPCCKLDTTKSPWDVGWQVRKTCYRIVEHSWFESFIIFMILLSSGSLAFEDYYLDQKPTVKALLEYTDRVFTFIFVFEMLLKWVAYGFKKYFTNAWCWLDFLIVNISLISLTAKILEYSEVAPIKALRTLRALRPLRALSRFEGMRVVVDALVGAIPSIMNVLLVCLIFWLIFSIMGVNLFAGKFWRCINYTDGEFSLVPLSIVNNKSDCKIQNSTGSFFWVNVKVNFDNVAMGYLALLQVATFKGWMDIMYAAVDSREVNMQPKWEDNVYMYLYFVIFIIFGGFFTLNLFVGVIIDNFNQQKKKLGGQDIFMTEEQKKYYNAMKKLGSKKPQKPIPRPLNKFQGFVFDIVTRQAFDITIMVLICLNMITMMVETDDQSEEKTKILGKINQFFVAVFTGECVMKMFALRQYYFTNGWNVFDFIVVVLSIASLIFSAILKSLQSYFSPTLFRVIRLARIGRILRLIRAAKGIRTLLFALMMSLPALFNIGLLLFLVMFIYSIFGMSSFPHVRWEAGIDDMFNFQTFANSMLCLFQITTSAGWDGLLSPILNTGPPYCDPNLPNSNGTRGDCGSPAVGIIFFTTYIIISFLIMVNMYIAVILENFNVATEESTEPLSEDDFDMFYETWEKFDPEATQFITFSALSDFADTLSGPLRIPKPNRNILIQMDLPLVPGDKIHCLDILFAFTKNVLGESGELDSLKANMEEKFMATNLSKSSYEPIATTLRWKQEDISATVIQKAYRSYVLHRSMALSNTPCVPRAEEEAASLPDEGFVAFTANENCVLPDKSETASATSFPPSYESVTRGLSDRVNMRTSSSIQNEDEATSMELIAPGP
- EXPERIMENTAL_DETAILS: hNav1.8 whole-cell patch-clamp electrophysiology (conventional or PatchXpress 7000) in stably transfected HEK cells
- Assay type: cell-based
- CONDITION_LABEL: estimated IC50 calculated from single point % inhibition; HEK cells expressing hNav1.8; 8 sec prepulse to V1/2, 20 msec step to 0 mV; average of replicates; read-out: Nav1.8 EIC50
pIC50: −log10 of the molar value.
ATTRIBUTE_MEASURED: pIC50

[[record]]
molecular_string = "CC(C)(C)c1ccc2[nH]c([C@@H](N)C(C)(C)C(N)=O)nc2c1"
tgt = "hNav1.8 (Homo sapiens, UniProt Q9Y5Y9)"
value_measured = 6.10

[[record]]
molecular_string = "CCCc1ccc2[nH]c(C(C)(C)N)nc2c1"
tgt = "hNav1.8 (Homo sapiens, UniProt Q9Y5Y9)"
value_measured = 5.41

[[record]]
molecular_string = "CC(C)(C)Cc1ccc2[nH]c([C@@H](N)CC(N)=O)nc2c1"
tgt = "hNav1.8 (Homo sapiens, UniProt Q9Y5Y9)"
value_measured = 6.46

[[record]]
molecular_string = "CC(C)(C)c1ccc2[nH]c([C@H]3CCCN3)nc2c1"
tgt = "hNav1.8 (Homo sapiens, UniProt Q9Y5Y9)"
value_measured = 7.13


---

- TGT: hNav1.8 (Homo sapiens, UniProt Q9Y5Y9)
- Construct: host or cells: HEK cells, stably transfected
- EXPERIMENTAL_DETAILS: hNav1.8 whole-cell patch-clamp electrophysiology (conventional or PatchXpress 7000) in stably transfected HEK cells
- Type: cell-based
- CONDITION_LABEL: estimated IC50 calculated from single point % inhibition; HEK cells expressing hNav1.8; 8 sec prepulse to V1/2, 20 msec step to 0 mV; average of replicates; read-out: Nav1.8 EIC50
ATTRIBUTE_MEASURED: IC50 (nM)

[[record]]
molecular_string = "CO[C@H](C)[C@H](N)c1nc2cc(-c3ccc(C#N)cc3C(F)(F)F)ccc2[nH]1"
tgt = "hNav1.8 (Homo sapiens, UniProt Q9Y5Y9)"
u = "nM"
value_measured = 111

[[record]]
molecular_string = "CCC(C)(C)c1ccc2[nH]c([C@@H](N)CC(N)=O)nc2c1"
tgt = "hNav1.8 (Homo sapiens, UniProt Q9Y5Y9)"
u = "nM"
value_measured = 148

[[record]]
molecular_string = "CC(C)(C)c1ccc2[nH]c(C3(N)Cc4ccccc4C3)nc2c1"
tgt = "hNav1.8 (Homo sapiens, UniProt Q9Y5Y9)"
u = "nM"
value_measured = 76

[[record]]
molecular_string = "CC[C@@H](N)c1nc2cc(C(C)(C)C)ccc2[nH]1"
tgt = "hNav1.8 (Homo sapiens, UniProt Q9Y5Y9)"
u = "nM"
value_measured = 151

[[record]]
molecular_string = "CCC[C@H](N)c1nc2cc(-c3ccc(C#N)cc3)ccc2[nH]1"
tgt = "hNav1.8 (Homo sapiens, UniProt Q9Y5Y9)"
u = "nM"
value_measured = 110

